- assay.system: AT1 wild-type (WT) receptor (Rattus norvegicus, UniProt P25095)
pKd: −log10 of the molar value.
observed.property: pKd

(A) CCCc1nc(C(C)(C)O)c(C(=O)O)n1Cc1ccc(-c2cc(Cc3ccc(OCOC)cc3)ccc2-c2nnn[nH]2)cc1 [R781254]
(B) CCCc1nc(C(C)(C)O)c(C(=O)O)n1Cc1ccc(-c2cc(Cc3ccc(O)cc3)ccc2-c2nnn[nH]2)cc1 [R781253]
(C) CCCc1nc(C(C)C)c(C(N)=O)n1Cc1ccc(-c2cc(Cc3ccc(O)cc3)ccc2-c2nnn[nH]2)cc1 [R795100]
(D) CCCc1nc(C(C)(C)O)c(C(=O)O)n1Cc1ccc(-c2ccccc2-c2nnn[nH]2)cc1 [Olmesartan, olmesartan, reference compound]
Sort by pKd, descending. Answer by naming the labels in the order asked.
D, B, C, A
(D: 8.64, B: 7.68, C: 6.75, A: 6.40)

----------
- assay.system: AT1 C76A/V108C/C289A mutant receptor (Rattus norvegicus, UniProt P25095, C289A/C76A/V108C)
- method.notes: competition binding, C76A/V108C/C289A mutant
- test.settings: C76A/V108C/C289A; COS1 membranes; read-out: Binding affinity (Kd)
observed.property: Kd (nM)

- compound: "CCCc1nc(C(C)(C)O)c(C(N)=O)n1Cc1ccc(-c2cc(Cc3ccc(O)cc3)ccc2-c2nnn[nH]2)cc1"
  assay.system: "AT1 C76A/V108C/C289A mutant receptor (Rattus norvegicus, UniProt P25095, C289A/C76A/V108C)"
  Kd (nM): 391

(P) CCCc1nc(C(C)(C)O)c(C(=O)O)n1Cc1ccc(-c2ccccc2-c2nnn[nH]2)cc1 [Olmesartan, olmesartan, reference compound]
(Q) CCCc1nc(C(C)(C)O)c(C(N)=O)n1Cc1ccc(-c2ccccc2-c2nnn[nH]2)cc1
Out of P and Q , name the one with the higher Kd. Returns: label corresponding to the selected item.
P
(P: 32 nM, Q: 10 nM)

----------
- assay.system: AT1 C76A/S109C/C289A mutant receptor (Rattus norvegicus, UniProt P25095, C289A/C76A/S109C)
- Sequence (P25095 1-359 C76A/S109C/C289A): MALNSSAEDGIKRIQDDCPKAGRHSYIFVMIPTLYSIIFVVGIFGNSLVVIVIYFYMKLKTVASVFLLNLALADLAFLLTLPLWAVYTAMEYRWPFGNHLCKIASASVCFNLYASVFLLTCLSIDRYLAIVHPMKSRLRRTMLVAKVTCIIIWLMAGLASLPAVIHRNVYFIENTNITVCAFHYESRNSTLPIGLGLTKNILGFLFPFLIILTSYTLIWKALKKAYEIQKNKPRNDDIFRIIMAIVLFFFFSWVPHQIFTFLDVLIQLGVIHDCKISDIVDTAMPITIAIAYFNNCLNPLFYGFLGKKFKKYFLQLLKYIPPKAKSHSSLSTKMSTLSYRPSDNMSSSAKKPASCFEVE
- method.notes: competition binding, C76A/S109C/C289A mutant
- test.settings: C76A/S109C/C289A; COS1 membranes; read-out: Binding affinity (Kd)
observed.property: Kd (nM)

(1) CCCc1nc(C(C)(C)O)c(C(=O)O)n1Cc1ccc(-c2ccccc2-c2nnn[nH]2)cc1 [Olmesartan, olmesartan, reference compound]
(2) CCCc1nc(C(C)(C)O)c(C(N)=O)n1Cc1ccc(-c2cc(Cc3ccc(O)cc3)ccc2-c2nnn[nH]2)cc1
(3) CCCc1nc(C(C)(C)O)c(C(N)=O)n1Cc1ccc(-c2ccccc2-c2nnn[nH]2)cc1
Sort by Kd, descending. Answer by naming the labels in the order asked.
2, 1, 3

----------
- assay.system: AT1 L112A mutant receptor (Rattus norvegicus, UniProt P25095, L112A)
- method.notes: competition binding, L112A mutant
- test.settings: L112A; COS1 membranes; read-out: Binding affinity (Kd)
- Protocol: The Kd and Bmax values of receptor binding were determined by ^125I-[Sar^1, Ile^8] […] Membranes expressing the WT or mutant AT1 receptors were incubated with 100 pM ^125I-[Sar^1, Ile^8] […] The bound ligand fraction was determined from the counts per minute (cpm) remaining on the membrane. Binding kinetics values were determined as previously described.
pKd: −log10 of the molar value.
observed.property: pKd

- molecule: "CCCc1nc(C(C)(C)O)c(C(N)=O)n1Cc1ccc(-c2ccccc2-c2nnn[nH]2)cc1"
  assay.system: "AT1 L112A mutant receptor (Rattus norvegicus, UniProt P25095, L112A)"
  pKd: 7.37
- molecule: "CCCc1nc(C(C)(C)O)c(C(=O)O)n1Cc1ccc(-c2ccccc2-c2nnn[nH]2)cc1 [Olmesartan, olmesartan, reference compound]"
  assay.system: "AT1 L112A mutant receptor (Rattus norvegicus, UniProt P25095, L112A)"
  pKd: 7.57
- molecule: "CCCc1nc(C(C)(C)O)c(C(N)=O)n1Cc1ccc(-c2cc(Cc3ccc(O)cc3)ccc2-c2nnn[nH]2)cc1"
  assay.system: "AT1 L112A mutant receptor (Rattus norvegicus, UniProt P25095, L112A)"
  pKd: 7.51

----------
- assay.system: AT1 C76A/N111C/C289A mutant receptor (Rattus norvegicus, UniProt P25095, C289A/C76A/N111C)
- method.notes: competition binding, C76A/N111C/C289A mutant
- test.settings: C76A/N111C/C289A; COS1 membranes; read-out: Binding affinity (Kd)
observed.property: Kd (nM)

(1) CCCc1nc(C(C)(C)O)c(C(=O)O)n1Cc1ccc(-c2ccccc2-c2nnn[nH]2)cc1 [Olmesartan, olmesartan, reference compound]
(2) CCCc1nc(C(C)(C)O)c(C(N)=O)n1Cc1ccc(-c2ccccc2-c2nnn[nH]2)cc1
(3) CCCc1nc(C(C)(C)O)c(C(N)=O)n1Cc1ccc(-c2cc(Cc3ccc(O)cc3)ccc2-c2nnn[nH]2)cc1
Sort by Kd, descending. Answer by naming the labels in the order asked.
3, 1, 2

----------
- assay.system: AT1 Y113F mutant receptor (Rattus norvegicus, UniProt P25095, Y113F)
- Sequence (P25095 1-359 Y113F): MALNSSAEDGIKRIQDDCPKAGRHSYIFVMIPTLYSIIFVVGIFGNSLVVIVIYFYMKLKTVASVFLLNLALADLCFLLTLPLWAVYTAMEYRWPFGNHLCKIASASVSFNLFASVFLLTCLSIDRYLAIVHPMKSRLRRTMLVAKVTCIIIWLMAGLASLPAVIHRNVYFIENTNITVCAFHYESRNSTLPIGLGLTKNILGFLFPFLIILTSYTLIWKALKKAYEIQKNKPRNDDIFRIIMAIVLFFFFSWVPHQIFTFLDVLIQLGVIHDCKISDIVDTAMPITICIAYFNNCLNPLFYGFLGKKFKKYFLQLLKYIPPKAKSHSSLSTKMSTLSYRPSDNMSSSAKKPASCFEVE
- method.notes: competition binding, Y113F mutant
- test.settings: Y113F; COS1 membranes; read-out: Binding affinity (Kd)
observed.property: Kd (nM)

- compound: "CCCc1nc(C(C)(C)O)c(C(=O)O)n1Cc1ccc(-c2ccccc2-c2nnn[nH]2)cc1 [Olmesartan, olmesartan, reference compound]"
  value.measured: 52

(I) CCCc1nc(C(C)(C)O)c(C(N)=O)n1Cc1ccc(-c2cc(Cc3ccc(O)cc3)ccc2-c2nnn[nH]2)cc1 [R794847]
(II) CCCc1nc(C(C)(C)O)c(C(N)=O)n1Cc1ccc(-c2ccccc2-c2nnn[nH]2)cc1 [R239470]
Out of I and II , name the one with the higher Kd. Returns: label corresponding to the selected item.
I
(I: 388 nM, II: 17 nM)

----------
- assay.system: AT1 V108A mutant receptor (Rattus norvegicus, UniProt P25095, V108A)
- method.notes: competition binding, V108A mutant
- test.settings: V108A; COS1 membranes; read-out: Binding affinity (Kd)
observed.property: Kd (nM)

(I) CCCc1nc(C(C)(C)O)c(C(=O)O)n1Cc1ccc(-c2ccccc2-c2nnn[nH]2)cc1 [Olmesartan, olmesartan, reference compound]
(II) CCCc1nc(C(C)(C)O)c(C(N)=O)n1Cc1ccc(-c2ccccc2-c2nnn[nH]2)cc1
(III) CCCc1nc(C(C)(C)O)c(C(N)=O)n1Cc1ccc(-c2cc(Cc3ccc(O)cc3)ccc2-c2nnn[nH]2)cc1
Sort by Kd, descending. Answer by naming the labels in the order asked.
III, I, II

----------
- assay.system: AT1 A114G mutant receptor (Rattus norvegicus, UniProt P25095, A114G)
- method.notes: competition binding, A114G mutant
- test.settings: A114G; COS1 membranes; read-out: Binding affinity (Kd)
pKd: −log10 of the molar value.
observed.property: pKd

- compound: "CCCc1nc(C(C)(C)O)c(C(N)=O)n1Cc1ccc(-c2cc(Cc3ccc(O)cc3)ccc2-c2nnn[nH]2)cc1"
  pKd: 6.74

(1) CCCc1nc(C(C)(C)O)c(C(=O)O)n1Cc1ccc(-c2ccccc2-c2nnn[nH]2)cc1 [Olmesartan, olmesartan, reference compound]
(2) CCCc1nc(C(C)(C)O)c(C(N)=O)n1Cc1ccc(-c2ccccc2-c2nnn[nH]2)cc1
Out of 1 and 2 , name the one with the higher pKd. Returns: label corresponding to the selected item.
2
(2: 8.96, 1: 8.40)
